Reference source for all entries: ChEMBL document CHEMBL3259727

- experiment description: Bioavailability in mouse
- Type: ADME, organism-based
- test context: in vivo
value type: bioavailability

> print(dat)
                                 smiles.str       value.type  result
1  N#Cc1ccc(-c2ccc(C[C@@H](C#N)NC(=O)C3(N)CCOCC3)cc2)cc1  bioavailability     95%

###

# IC50 per entry for Cathepsin K (Homo sapiens)
value type: IC50 (µM)

> print(dat)
                                 smiles.str  value.type  result.number
1  CN1Cc2cc(-c3ccc(C[C@@H](C#N)NC(=O)[C@@H]4CCCCN4)cc3)ccc2C1=O        IC50          0.251
2  CN1Cc2ccc(-c3ccc(C[C@@H](C#N)NC(=O)C4(N)CCOCC4)cc3)cc2C1=O        IC50           7.94
3  N#Cc1ccc(-c2ccc(C[C@@H](C#N)NC(=O)[C@@H]3CCCCN3)cc2)cc1        IC50              1
4  N#Cc1ccc(-c2ccc(C[C@@H](C#N)NC(=O)[C@@H]3C[C@@H](O)CCN3)cc2)cc1        IC50           6.31

###

# pIC50 per entry for Cathepsin B (Homo sapiens, UniProt P07858)
pIC50: −log10 of the molar value.
value type: pIC50

> print(dat)
                                 smiles.str  result
1  N#Cc1ccc(-c2ccc(C[C@@H](C#N)NC(=O)[C@@H]3CCCCN3)cc2)cc1  < 5.00
2  N#Cc1ccc(-c2ccc(C[C@@H](C#N)NC(=O)[C@@H]3C[C@@H](O)CCN3)cc2)cc1  < 5.00

###

- experiment description: Volume of distribution at steady state in rat
- Assay type: ADME, organism-based
- test context: in vivo, read-out: Vdss
// Vd lookup, one value per entry
value type: Vd

> print(dat)
                                 smiles.str    result
1  N#Cc1ccc(-c2ccc(C[C@@H](C#N)NC(=O)[C@@H]3CCCCN3)cc2)cc1  5.6 L/kg
2  N#Cc1ccc(-c2ccc(C[C@@H](C#N)NC(=O)C3(N)CCOCC3)cc2)cc1  1.9 L/kg

###

- experiment description: Lipophilicity, log D of the compound
- Type: physicochemical
- test context: octanol/water
// logD lookup, one value per entry
value type: logD

> print(dat)
                                 smiles.str  value.type  result.number
1  CN1Cc2ccc(-c3ccc(C[C@@H](C#N)NC(=O)C4(N)CCOCC4)cc3)cc2C1=O        logD            1.1
2  CN1Cc2cc(-c3ccc(C[C@@H](C#N)NC(=O)[C@@H]4CCCCN4)cc3)ccc2C1=O        logD              1
3  N#C[C@H](Cc1ccc(-c2ccccc2)cc1)NC(=O)C1(N)CCOCC1        logD            2.3
4  N#Cc1ccc(-c2ccc(C[C@@H](C#N)NC(=O)[C@@H]3C[C@@H](O)CCN3)cc2)cc1        logD            1.4
5  N#Cc1ccc(-c2ccc(C[C@@H](C#N)NC(=O)[C@@H]3CCCCN3)cc2)cc1        logD            2.7

###

- experiment description: Dissociation constant, pKa of the compound
- Format: physicochemical
// pKa lookup, one value per entry
value type: pKa

> print(dat)
                                 smiles.str  value.type  result.number
1  N#Cc1ccc(-c2ccc(C[C@@H](C#N)NC(=O)C3(N)CCOCC3)cc2)cc1         pKa            5.8
2  CN1Cc2cc(-c3ccc(C[C@@H](C#N)NC(=O)[C@@H]4CCCCN4)cc3)ccc2C1=O         pKa            7.1
3  N#Cc1ccc(-c2ccc(C[C@@H](C#N)NC(=O)[C@@H]3C[C@@H](O)CCN3)cc2)cc1         pKa            7.6
4  CS(=O)(=O)c1cccc(-c2ccc(C[C@@H](C#N)NC(=O)C3(N)CCOCC3)cc2)c1         pKa            6.3
5  N#C[C@H](Cc1ccc(-c2ccccc2)cc1)NC(=O)C1(N)CCOCC1         pKa            5.4
6  CN1Cc2ccc(-c3ccc(C[C@@H](C#N)NC(=O)C4(N)CCOCC4)cc3)cc2C1=O         pKa            6.3
7  N#Cc1ccc(-c2ccc(C[C@@H](C#N)NC(=O)C3(N)CCCCC3)cc2)cc1         pKa            7.1
8  N#Cc1ccc(-c2ccc(C[C@@H](C#N)NC(=O)[C@@H]3CCCCN3)cc2)cc1         pKa            8.4

###

- experimental system: Voltage-gated inwardly rectifying potassium channel KCNH2 (Homo sapiens)
- Sequence (Q12809 whole entry): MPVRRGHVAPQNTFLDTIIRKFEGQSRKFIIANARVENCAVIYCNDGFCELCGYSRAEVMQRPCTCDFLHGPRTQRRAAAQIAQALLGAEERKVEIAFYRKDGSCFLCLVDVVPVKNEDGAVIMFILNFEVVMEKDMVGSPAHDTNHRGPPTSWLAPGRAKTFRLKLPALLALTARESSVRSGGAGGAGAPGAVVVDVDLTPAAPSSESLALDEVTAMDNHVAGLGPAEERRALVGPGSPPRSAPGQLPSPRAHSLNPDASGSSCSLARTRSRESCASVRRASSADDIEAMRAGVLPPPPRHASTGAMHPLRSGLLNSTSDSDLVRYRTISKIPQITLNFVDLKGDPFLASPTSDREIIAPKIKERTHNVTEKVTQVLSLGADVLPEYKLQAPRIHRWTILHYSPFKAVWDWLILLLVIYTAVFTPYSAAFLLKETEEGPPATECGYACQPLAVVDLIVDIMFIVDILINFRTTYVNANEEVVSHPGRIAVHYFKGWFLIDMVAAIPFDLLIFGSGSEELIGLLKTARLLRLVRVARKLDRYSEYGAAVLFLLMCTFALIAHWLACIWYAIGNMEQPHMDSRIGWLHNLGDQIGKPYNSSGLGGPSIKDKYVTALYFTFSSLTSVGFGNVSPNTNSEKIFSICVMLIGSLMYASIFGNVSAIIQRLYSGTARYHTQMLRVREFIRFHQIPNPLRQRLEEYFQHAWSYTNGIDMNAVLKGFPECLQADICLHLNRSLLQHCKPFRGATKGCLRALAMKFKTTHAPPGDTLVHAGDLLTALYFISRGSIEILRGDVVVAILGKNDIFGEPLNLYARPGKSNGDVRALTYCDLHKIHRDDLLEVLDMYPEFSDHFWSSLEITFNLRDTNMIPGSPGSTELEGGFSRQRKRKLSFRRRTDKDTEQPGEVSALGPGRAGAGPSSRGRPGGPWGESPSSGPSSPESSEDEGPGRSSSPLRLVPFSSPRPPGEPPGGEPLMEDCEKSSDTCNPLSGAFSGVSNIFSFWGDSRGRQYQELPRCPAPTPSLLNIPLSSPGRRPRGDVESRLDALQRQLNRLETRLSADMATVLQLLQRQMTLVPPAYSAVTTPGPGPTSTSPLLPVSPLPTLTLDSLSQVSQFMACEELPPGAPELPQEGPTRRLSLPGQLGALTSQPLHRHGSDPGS
// IC50 lookup, one value per entry
value type: IC50 (µM)

> print(dat)
                                 smiles.str                       experimental.system  value.type  scale.unit  qual  result.number
1  CN1Cc2cc(-c3ccc(C[C@@H](C#N)NC(=O)[C@@H]4C[C@@H](O)CCN4)cc3)ccc2C1=O  Voltage-gated inwardly rectifying potassium channel KCNH2 (Homo sapiens)        IC50          µM     >             33
2  N#Cc1ccc(-c2ccc(C[C@@H](C#N)NC(=O)C3(N)CCOCC3)cc2)cc1  Voltage-gated inwardly rectifying potassium channel KCNH2 (Homo sapiens)        IC50          µM     =             26
3  N#C[C@H](Cc1ccc(-c2ccccc2)cc1)NC(=O)C1(N)CCOCC1  Voltage-gated inwardly rectifying potassium channel KCNH2 (Homo sapiens)        IC50          µM     >             33
4  N#Cc1ccc(-c2ccc(C[C@@H](C#N)NC(=O)[C@@H]3C[C@@H](O)CCN3)cc2)cc1  Voltage-gated inwardly rectifying potassium channel KCNH2 (Homo sapiens)        IC50          µM     >             33
5  N#Cc1ccc(-c2ccc(C[C@@H](C#N)NC(=O)[C@@H]3CCCCN3)cc2)cc1  Voltage-gated inwardly rectifying potassium channel KCNH2 (Homo sapiens)        IC50          µM     =            1.4
6  CS(=O)(=O)c1cccc(-c2ccc(C[C@@H](C#N)NC(=O)C3(N)CCOCC3)cc2)c1  Voltage-gated inwardly rectifying potassium channel KCNH2 (Homo sapiens)        IC50          µM     >             33
7  N#Cc1ccc(-c2ccc(C[C@@H](C#N)NC(=O)C3(N)CCCCC3)cc2)cc1  Voltage-gated inwardly rectifying potassium channel KCNH2 (Homo sapiens)        IC50          µM     =              9
8  CSc1cc(-c2ccc(C[C@@H](C#N)NC(=O)[C@@H]3CCCCN3)cc2)ccc1C#N  Voltage-gated inwardly rectifying potassium channel KCNH2 (Homo sapiens)        IC50          µM     =            2.7
9  CN1Cc2ccc(-c3ccc(C[C@@H](C#N)NC(=O)C4(N)CCOCC4)cc3)cc2C1=O  Voltage-gated inwardly rectifying potassium channel KCNH2 (Homo sapiens)        IC50          µM     >             33

###

- experiment description: Bioavailability in dog
- Type: ADME, organism-based, Canis lupus familiaris
- test context: in vivo
value type: bioavailability (%)

> print(dat)
                                 smiles.str       value.type  scale.unit  result.number
1  N#Cc1ccc(-c2ccc(C[C@@H](C#N)NC(=O)C3(N)CCOCC3)cc2)cc1  bioavailability           %             72

###

- experimental system: Procathepsin L (Homo sapiens, UniProt P07711)
- Sequence (P07711 whole entry): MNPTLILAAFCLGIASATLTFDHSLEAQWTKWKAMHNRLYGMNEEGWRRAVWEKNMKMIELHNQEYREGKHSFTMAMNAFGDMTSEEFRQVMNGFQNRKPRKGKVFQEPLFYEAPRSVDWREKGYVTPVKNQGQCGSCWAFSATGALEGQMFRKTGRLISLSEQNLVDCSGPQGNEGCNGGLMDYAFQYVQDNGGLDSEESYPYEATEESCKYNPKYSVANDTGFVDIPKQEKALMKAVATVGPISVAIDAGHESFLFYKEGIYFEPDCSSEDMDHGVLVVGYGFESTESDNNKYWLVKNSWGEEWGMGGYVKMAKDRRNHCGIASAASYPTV
pIC50: −log10 of the molar value.
value type: pIC50

> print(dat)
                                 smiles.str  value.type  result
1  N#Cc1ccc(-c2ccc(C[C@@H](C#N)NC(=O)[C@@H]3C[C@@H](O)CCN3)cc2)cc1       pIC50  < 5.00

###

- experiment description: Volume of distribution at steady state in dog
- Assay type: ADME, organism-based, Canis lupus familiaris
- test context: in vivo, read-out: Vdss
value type: Vd (L/kg)

> print(dat)
                                 smiles.str  value.type  result.number
1  N#Cc1ccc(-c2ccc(C[C@@H](C#N)NC(=O)C3(N)CCOCC3)cc2)cc1          Vd            1.4
